# Tested on: leukotriene biosynthesis
# measurementProtocol: Inhibition of leukotriene biosynthesis in vivo after oral administration, rat peritoneal anaphylaxis model
# measurementConditions: 200 μmol/kg oral (gavage), 1 h before antigen challenge, read-out: % Inhibition of Leukotrienes at 200 μmol/kg oral dose
Binary classification by inhibition in vivo at 200 µmol/kg, with 90% as an inclusive lower bound for t; all other cases are f.

See these solved cases before continuing.
compound	assignedLabel
CC(C)Cc1ccc([C@@H]2C[C@H]2C(C)N(O)C(N)=O)cc1 (stereo partly shown)	f
CC([C@@H]1C[C@H]1c1cc2ccccc2s1)N(O)C(N)=O (stereo partly shown)	f
NC(=O)N(O)C[C@@H]1C[C@H]1c1ccccc1Oc1ccccc1 (relative stereo)	t
CC(Oc1ccc([C@@H]2C[C@H]2CN(O)C(N)=O)cc1)c1ccccc1 (stereo partly shown)	t
CC(Oc1ccc([C@H]2[C@H](CN(O)C(N)=O)C2(C)C)cc1)c1ccccc1 (stereo partly shown)	f
CNC(=O)N(O)C[C@@H]1C[C@H]1c1cccc(Oc2ccccc2)c1 (relative stereo)	f

Alright, here's another compound for you.
Task: Textbook exercise: given the entry CC([C@@H]1C[C@H]1c1ccc(Br)cc1)N(O)C(N)=O (stereo partly shown) , state whether its inhibition in vivo at 200 µmol/kg is greater than or equal to 90%.
Result: t
